Molecular target: human FXa (Homo sapiens, UniProt P00742)
Sequence (P00742 235-488 limits assumed): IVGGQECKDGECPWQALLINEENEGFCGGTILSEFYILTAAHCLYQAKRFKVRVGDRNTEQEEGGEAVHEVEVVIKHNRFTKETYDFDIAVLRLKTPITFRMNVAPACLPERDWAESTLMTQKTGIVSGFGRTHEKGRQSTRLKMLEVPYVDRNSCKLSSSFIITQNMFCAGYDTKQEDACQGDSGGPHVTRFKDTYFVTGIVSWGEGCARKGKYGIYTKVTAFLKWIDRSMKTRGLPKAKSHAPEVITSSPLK
Sequence (P00742 41-179 partner limits assumed): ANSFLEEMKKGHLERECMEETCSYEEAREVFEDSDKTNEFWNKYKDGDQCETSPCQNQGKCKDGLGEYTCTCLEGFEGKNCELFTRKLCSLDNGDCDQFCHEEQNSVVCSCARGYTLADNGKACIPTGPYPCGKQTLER
property.measured: IC50 (nM)
Report the value in nM with no unit label.

Task: Specify IC50 for `CC1=C(C(=O)CC(=O)C(=O)Nc2ccccc2)Sc2ccccc2N1` , system human FXa (Homo sapiens, UniProt P00742).
Result: 2.02

Values from paper PMC6151700
